# Test system: AMP-activated protein kinase (AMPK)
# Assay name: ADP Quest assay for AMPK activators
# Type: biochemical
# Set-up: key: fold AMPK activation with vs without activator at 30 µM
# Reported conditions: fold of AMPK activation to phosphorylate SAMS peptide without and with an activator at the concentration of 30 µM
# Protocol: ADP Quest™ Assay for AMPK Activators This method evaluates AMP-activated protein kinase (AMPK) activity through detecting the accumulation of ADP product using an ADP Quest kit and determining the E30 values of the small molecular AMPK activators. ADP Quest kit (DiscoveRx, Fremont, Calif.) is stored at −20° C. before use. […] The reaction fluorescence signal is monitored and recorded on Envision in kinetic mode with the excitation wavelength of 530 nm and emission wavelength of 590 nm. […]
Assign E30 to each entry below.

For the molecule COCCNC(=O)c1cccc(C2Nc3ccc(C(=O)O)cc3CC2(C)C)c1 (centres unmarked) , what E30 is on record?
1.27

Try this molecule next: CCS(=O)(=O)NC(=O)c1ccc2c(c1)CC(C)(C)C(c1cccc(N3CCOCC3)c1)N2 (centres unmarked)
1.44

Try this molecule next: CC(C)N1CCN(c2cc(F)cc(C3Nc4ccc(C(=O)NS(C)(=O)=O)cc4CC3(C)C)c2)CC1 (centres unmarked)
1.19

Try this molecule next: CC1(C)Cc2cc(C(=O)O)ccc2NC1c1cccc(NC(=O)c2ccc(F)cc2)c1 (centres unmarked)
1.25

Try this molecule next: CC(C)C(=O)Nc1cc(C2Nc3ccc(C(=O)O)cc3CC2(C)C)ccc1F (centres unmarked)
1.54

Try this molecule next: CN1CCC(NC(=O)c2cccc(C3Nc4ccc(Cl)cc4CC3(C)C)c2)C1 (centres unmarked)
1.64

Try this molecule next: CC1(C)Cc2cc(C(=O)O)ccc2NC1c1ccccc1NS(C)(=O)=O (centres unmarked)
1.94

Try this molecule next: CC1(C)Cc2cc(C(=O)O)ccc2NC1c1cccc(C(=O)N2CCCCC2)c1 (centres unmarked)
1.27

Try this molecule next: CC(C)(Oc1cccc(C2Nc3ccc(C(=O)O)cc3CC2(C)C)c1)C(=O)O (centres unmarked)
1.29

Try this molecule next: CC1(C)Cc2cc(C(=O)NS(=O)(=O)C3CC3)ccc2NC1c1ccc(F)c(N2CCOCC2)c1 (centres unmarked)
1.22

Try this molecule next: CC1(C)Cc2cc(C(=O)O)ccc2NC1c1ccc(NC(=O)C2CCC2)cc1 (centres unmarked)
1.38

Try this molecule next: CNCCN(C)c1cccc(C2Nc3ccc(C(=O)O)cc3CC2(C)C)c1 (centres unmarked)
1.5

Try this molecule next: CN1CC(NC(=O)c2cccc(C3Nc4ccc(C(=O)O)cc4CC3(C)C)c2)C1 (centres unmarked)
1.3

Try this molecule next: CC1(C)Cc2cc(C(=O)O)ccc2NC1c1ccc(F)c(NS(=O)(=O)c2ccccc2F)c1 (centres unmarked)
1.28

Try this molecule next: CC1(C)Cc2cc(C(=O)O)ccc2NC1c1ccc(F)c(NC(=O)C2CC2)c1 (centres unmarked)
1.31

Try this molecule next: CC1(C)Cc2cc(C(=O)O)ccc2NC1c1ccc(NC(=O)C2=CCCCC2)cc1 (centres unmarked)
1.27

Try this molecule next: CC1(C)Cc2cc(Cl)cc(C(=O)NS(C)(=O)=O)c2NC1c1cccc(N2CCN(c3ccc(Cl)cc3)CC2)c1 (centres unmarked)
1.32
